Biological target: T1, Human CD19-his protein (human, UniProt P15391 20-291)
T1 construct: bought protein; also called recombinant human CD19-His; CD19 full-length protein; not shown: His tag
T1 sequence (looked up): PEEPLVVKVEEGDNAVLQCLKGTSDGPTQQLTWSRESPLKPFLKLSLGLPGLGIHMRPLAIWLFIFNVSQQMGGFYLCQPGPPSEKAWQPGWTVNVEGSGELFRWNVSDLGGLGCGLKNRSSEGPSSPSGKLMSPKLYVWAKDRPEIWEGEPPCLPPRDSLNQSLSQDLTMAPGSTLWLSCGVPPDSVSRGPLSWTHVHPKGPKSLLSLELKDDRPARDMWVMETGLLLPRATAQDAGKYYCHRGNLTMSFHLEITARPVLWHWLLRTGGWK
Assay: SPR Biacore, Ab captured on Protein A, CD19-His analyte
measured_quantity: Kd (nM)
Response body: numeric value in nM, unit text excluded.

F3.114.12 (antibody, human IgG1, V domains shown, human-murine chimeric antibody, human IgG1 constant) VH: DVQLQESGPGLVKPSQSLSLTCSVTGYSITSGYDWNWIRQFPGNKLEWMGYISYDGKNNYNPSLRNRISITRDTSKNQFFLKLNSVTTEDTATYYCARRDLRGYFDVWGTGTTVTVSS VL: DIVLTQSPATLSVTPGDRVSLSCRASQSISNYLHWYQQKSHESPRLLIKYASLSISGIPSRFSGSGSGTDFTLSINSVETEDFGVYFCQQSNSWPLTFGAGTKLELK    6.03
F4.58.6 (antibody, human IgG1, V domains shown, human-murine chimeric antibody, human IgG1 constant) VH: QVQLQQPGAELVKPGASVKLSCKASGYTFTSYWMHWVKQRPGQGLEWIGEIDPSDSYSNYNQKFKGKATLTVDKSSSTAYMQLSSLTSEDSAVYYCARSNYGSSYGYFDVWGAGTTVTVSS VL: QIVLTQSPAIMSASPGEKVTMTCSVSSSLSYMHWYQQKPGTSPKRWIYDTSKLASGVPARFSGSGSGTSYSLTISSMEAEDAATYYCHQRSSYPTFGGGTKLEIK    13.9
F3.121.4 (antibody, human IgG1, V domains shown, human-murine chimeric antibody, human IgG1 constant; also called chimeric antibody F3.121.4) VH: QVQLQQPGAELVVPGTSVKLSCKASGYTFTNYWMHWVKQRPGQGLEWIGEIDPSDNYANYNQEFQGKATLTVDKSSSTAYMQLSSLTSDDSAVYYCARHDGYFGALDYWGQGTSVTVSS VL: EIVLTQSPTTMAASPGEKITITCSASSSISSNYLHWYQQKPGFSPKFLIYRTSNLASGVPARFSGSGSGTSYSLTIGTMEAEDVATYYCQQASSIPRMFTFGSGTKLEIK    1.15

Ask: Given F4.180.1 (antibody, human IgG1, V domains shown, human-murine chimeric antibody, human IgG1 constant) VH: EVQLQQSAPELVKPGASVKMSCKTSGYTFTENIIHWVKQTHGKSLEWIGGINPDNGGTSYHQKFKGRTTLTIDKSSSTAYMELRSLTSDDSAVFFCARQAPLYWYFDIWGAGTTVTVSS VL: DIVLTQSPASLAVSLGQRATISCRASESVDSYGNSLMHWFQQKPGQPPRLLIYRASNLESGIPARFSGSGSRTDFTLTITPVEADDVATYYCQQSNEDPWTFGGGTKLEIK , respond with its Kd.
Reply: 0.359
